- system: S. aureus DNA gyrase (Staphylococcus aureus)
- Construct: purchased Inspiralis (Norwich, UK)
- Sequence (P20831 whole entry): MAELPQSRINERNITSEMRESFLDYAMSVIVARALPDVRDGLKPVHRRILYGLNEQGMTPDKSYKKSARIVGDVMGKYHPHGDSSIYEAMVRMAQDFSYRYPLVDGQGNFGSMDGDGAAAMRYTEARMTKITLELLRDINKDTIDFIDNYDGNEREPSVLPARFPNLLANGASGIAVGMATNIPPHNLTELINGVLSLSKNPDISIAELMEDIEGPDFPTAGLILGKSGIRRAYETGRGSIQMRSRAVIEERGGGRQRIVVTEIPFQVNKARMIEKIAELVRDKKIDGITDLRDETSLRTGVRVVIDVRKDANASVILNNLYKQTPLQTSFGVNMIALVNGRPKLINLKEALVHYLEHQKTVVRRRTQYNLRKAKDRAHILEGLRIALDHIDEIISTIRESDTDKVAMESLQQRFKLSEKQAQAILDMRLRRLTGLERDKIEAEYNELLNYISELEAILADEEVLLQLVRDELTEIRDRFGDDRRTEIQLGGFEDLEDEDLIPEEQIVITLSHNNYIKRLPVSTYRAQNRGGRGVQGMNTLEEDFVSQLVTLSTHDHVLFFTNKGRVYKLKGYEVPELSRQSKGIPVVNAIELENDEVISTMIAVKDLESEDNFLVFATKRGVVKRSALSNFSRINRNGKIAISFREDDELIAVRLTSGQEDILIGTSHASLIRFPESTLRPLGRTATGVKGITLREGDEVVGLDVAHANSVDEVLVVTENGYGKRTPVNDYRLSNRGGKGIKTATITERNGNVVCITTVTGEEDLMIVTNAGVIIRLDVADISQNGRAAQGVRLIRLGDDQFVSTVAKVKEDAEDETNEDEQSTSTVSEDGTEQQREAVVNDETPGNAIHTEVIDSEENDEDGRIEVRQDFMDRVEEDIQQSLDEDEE
- Sequence (P0A0K8 whole entry partner): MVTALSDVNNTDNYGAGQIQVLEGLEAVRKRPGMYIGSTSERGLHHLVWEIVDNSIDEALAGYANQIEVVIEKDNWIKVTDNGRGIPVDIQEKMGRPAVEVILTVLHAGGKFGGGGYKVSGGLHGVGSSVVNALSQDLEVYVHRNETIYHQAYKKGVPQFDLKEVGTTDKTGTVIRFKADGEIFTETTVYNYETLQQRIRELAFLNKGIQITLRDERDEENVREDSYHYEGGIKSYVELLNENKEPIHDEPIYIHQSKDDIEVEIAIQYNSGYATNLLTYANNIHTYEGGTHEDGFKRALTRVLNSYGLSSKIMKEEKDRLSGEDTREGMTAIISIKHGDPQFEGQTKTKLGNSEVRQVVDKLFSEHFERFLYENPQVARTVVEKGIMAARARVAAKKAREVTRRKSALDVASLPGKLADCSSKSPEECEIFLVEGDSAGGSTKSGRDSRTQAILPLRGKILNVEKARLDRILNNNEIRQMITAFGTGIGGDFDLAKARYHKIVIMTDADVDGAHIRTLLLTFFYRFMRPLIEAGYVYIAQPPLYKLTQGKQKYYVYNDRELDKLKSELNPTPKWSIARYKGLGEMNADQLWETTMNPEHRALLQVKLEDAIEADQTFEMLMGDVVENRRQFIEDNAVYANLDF
- measurement notes: S. aureus DNA gyrase supercoiling gel assay
- Assay type: biochemical
- protocol conditions: replicate Assay 2; read-out: IC50 S.aureus gyrase Supercoiling, Assay 2
Reported pIC50 values are given for each entry in this list.
A value of pIC50 is the negative decimal logarithm of a concentration given in moles per litre.

Example molecules with recorded pIC50:
{"molecule": "O=c1oc2ccc(F)cc2c2[nH]c(CN[C@H]3CC[C@H](n4c(=O)cnc5ncc(F)cc54)CC3)cc12 [Compound 4]", "reported value": 5.92}
{"molecule": "COc1cnc2ncc(=O)n([C@H]3CC[C@H](NCc4cc5c(=O)oc6ccc(F)cc6c5[nH]4)CC3)c2c1 [Compound 5]", "reported value": 6.77}
{"molecule": "O=C1COc2ncc(F)cc2N1[C@H]1CC[C@H](NCc2cc3c(=O)oc4ccc(F)cc4c3[nH]2)CC1 [Compound 1]", "reported value": 6.51}

Here is the next item to consider.
Request the reported pIC50 associated with Cl.O=c1oc2ccc(F)cc2c2[nH]c(CN[C@H]3CC[C@H](n4c(=O)ccc5ccc(F)cc54)CC3)cc12 [Compound 6]
6.46

----------
- system: E. coli DNA gyrase (Escherichia coli)
- Construct: purchased Inspiralis (Norwich, UK)
- measurement notes: E. coli DNA gyrase supercoiling gel assay
- Format: biochemical
- protocol conditions: replicate Assay 2; read-out: IC50 E. coli gyrase Supercoiling, Assay 2
- Experimental: S. aureus and E. coli DNA gyrase supercoiling and topo IV decatenation assay kits, as well as human topoisomerase II decatenation assay kits, were provided by Inspiralis (Norwich, UK). […] DNA bands were visualized by ethidium bromide staining the gel for 10 minutes, which was then destained for 10 minutes in water and analysed using gel documentation equipment (Syngene, Cambridge, UK). The DNA in each band was quantitated using Syngene Gene Tools software. […]
endpoint name: pIC50
Please note pIC50 is a logarithmic value: minus log10 of concentration in mol/L. Answer with that number alone.

Quick one: pIC50 for COc1cnc2ncc(=O)n([C@H]3CC[C@H](NCc4cc5c(=O)oc6ccc(F)cc6c5[nH]4)CC3)c2c1 [Compound 5] ?
7.00

Now the compound O=c1oc2ccc(F)cc2c2[nH]c(CN[C@H]3CC[C@H](n4c(=O)cnc5ncc(F)cc54)CC3)cc12 [Compound 4]
6.92

// query: O=C1COc2ncc(F)cc2N1[C@H]1CC[C@H](NCc2cc3c(=O)oc4ccc(F)cc4c3[nH]2)CC1 [Compound 1]
6.80

----------
- System: E. faecalis clinical isolates (n = 12) vanA (6)/vanB (6)
- measurement notes: MIC, multidrug-resistant clinical isolates
- Assay type: cell-based
- protocol conditions: Enterococcus faecalis
- Experimental: The bacterial reference strains used in this study were purchased from ATCC (American Type Culture Collection) via LGC Standards (Middlesex, UK). […] Clinical MDR isolates were provided by Aptuit, the IHMA Europa Sàrl repository (Epalinges, Switzerland) and the Statens Serum Institute (Copenhagen, Denmark). MICs were determined by the broth microdilution method (the agar dilution method was used only for N. gonorrhoeae) according to CLSI guidelines. […]
endpoint name: MIC50 (mg/L)
Write the value in mg/L as a bare number.

These recorded examples may help you get a feel for the data.
{"compound": "Cl.O=c1oc2ccc(F)cc2c2[nH]c(CN[C@H]3CC[C@H](n4c(=O)ccc5ncc(F)cc54)CC3)cc12 [Compound 3]", "measurement unit": "mg/L", "reported value": 0.12}
{"compound": "O=C1COc2ncc(F)cc2N1[C@H]1CC[C@H](NCc2cc3c(=O)oc4ccc(F)cc4c3[nH]2)CC1 [Compound 1]", "measurement unit": "mg/L", "reported value": 0.03}
{"compound": "Cl.O=c1oc2ccc(F)cc2c2[nH]c(CN[C@H]3CC[C@H](n4c(=O)ccc5ccc(F)cc54)CC3)cc12 [Compound 6]", "measurement unit": "mg/L", "reported value": 0.12}

# get_value(readout= MIC50, system= E. faecalis clinical isolates (n = 12) vanA (6)/vanB (6)) for COc1cnc2ncc(=O)n([C@H]3CC[C@H](NCc4cc5c(=O)oc6ccc(F)cc6c5[nH]4)CC3)c2c1 [Compound 5]
0.5

----------
- Tested on: S. aureus ATCC 29213
- measurement notes: MIC, broth microdilution
- Assay type: cell-based, Staphylococcus aureus
- protocol conditions: Staphylococcus aureus, ATCC29213, S. aureus ATCC 29213, ciprofloxacin-susceptible
endpoint name: MIC

{"smiles repr": "COc1cnc2ncc(=O)n([C@H]3CC[C@H](NCc4cc5c(=O)oc6ccc(F)cc6c5[nH]4)CC3)c2c1", "MIC": "0.5 µg/mL"}
{"smiles repr": "O=c1oc2ccc(F)cc2c2[nH]c(CN[C@H]3CC[C@H](n4c(=O)cnc5ncc(F)cc54)CC3)cc12", "MIC": "0.25 µg/mL"}
{"smiles repr": "Cl.N#Cc1ccc2ccc(=O)n([C@H]3CC[C@H](NCc4cc5c(=O)oc6ccc(F)cc6c5[nH]4)CC3)c2c1", "MIC": "0.03 µg/mL"}
{"smiles repr": "Cl.O=c1oc2ccc(F)cc2c2[nH]c(CN[C@H]3CC[C@H](n4c(=O)ccc5ccc(F)cc54)CC3)cc12", "MIC": "≤ 0.06 µg/mL"}
{"smiles repr": "Cl.O=c1oc2ccc(F)cc2c2[nH]c(CN[C@H]3CC[C@H](n4c(=O)ccc5ncc(F)cc54)CC3)cc12", "MIC": "0.25 µg/mL"}

Need MIC, item `O=C1COc2ncc(F)cc2N1[C@H]1CC[C@H](NCc2cc3c(=O)oc4ccc(F)cc4c3[nH]2)CC1`
0.25 µg/mL

----------
- system: E. coli DNA gyrase (Escherichia coli, UniProt P0AES4)
- Construct: purchased Inspiralis (Norwich, UK)
- measurement notes: E. coli DNA gyrase supercoiling gel assay
- Type: biochemical
- protocol conditions: read-out: IC50 E. coli Gyrase Supercoiling (average); average of two replicate experiments
endpoint name: IC50

Return reported IC50; argument: `Cl.O=c1oc2ccc(F)cc2c2[nH]c(CN[C@H]3CC[C@H](n4c(=O)ccc5ncc(F)cc54)CC3)cc12`
< 0.1 µM

----------
- system: S. aureus Topoisomerase IV (Staphylococcus aureus)
- Construct: purchased Inspiralis (Norwich, UK)
- Sequence (P0C1S7 whole entry): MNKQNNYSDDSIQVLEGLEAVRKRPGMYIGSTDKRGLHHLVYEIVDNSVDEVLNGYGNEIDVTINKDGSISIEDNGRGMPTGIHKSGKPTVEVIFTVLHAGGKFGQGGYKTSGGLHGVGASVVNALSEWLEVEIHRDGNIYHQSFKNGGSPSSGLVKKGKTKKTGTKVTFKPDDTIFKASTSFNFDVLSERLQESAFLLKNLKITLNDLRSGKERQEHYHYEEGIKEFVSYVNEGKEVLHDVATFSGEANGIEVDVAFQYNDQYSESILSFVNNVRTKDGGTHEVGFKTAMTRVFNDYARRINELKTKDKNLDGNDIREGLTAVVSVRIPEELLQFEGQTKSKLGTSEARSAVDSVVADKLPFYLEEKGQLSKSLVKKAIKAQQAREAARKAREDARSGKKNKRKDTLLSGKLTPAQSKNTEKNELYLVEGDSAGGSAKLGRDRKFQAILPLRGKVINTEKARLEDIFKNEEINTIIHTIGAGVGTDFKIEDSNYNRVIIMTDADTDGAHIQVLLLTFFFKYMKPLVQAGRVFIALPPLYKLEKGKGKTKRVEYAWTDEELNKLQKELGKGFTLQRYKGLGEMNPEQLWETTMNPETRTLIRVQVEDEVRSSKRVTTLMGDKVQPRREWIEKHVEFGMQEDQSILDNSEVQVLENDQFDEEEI
- Sequence (P0C1U9 whole entry): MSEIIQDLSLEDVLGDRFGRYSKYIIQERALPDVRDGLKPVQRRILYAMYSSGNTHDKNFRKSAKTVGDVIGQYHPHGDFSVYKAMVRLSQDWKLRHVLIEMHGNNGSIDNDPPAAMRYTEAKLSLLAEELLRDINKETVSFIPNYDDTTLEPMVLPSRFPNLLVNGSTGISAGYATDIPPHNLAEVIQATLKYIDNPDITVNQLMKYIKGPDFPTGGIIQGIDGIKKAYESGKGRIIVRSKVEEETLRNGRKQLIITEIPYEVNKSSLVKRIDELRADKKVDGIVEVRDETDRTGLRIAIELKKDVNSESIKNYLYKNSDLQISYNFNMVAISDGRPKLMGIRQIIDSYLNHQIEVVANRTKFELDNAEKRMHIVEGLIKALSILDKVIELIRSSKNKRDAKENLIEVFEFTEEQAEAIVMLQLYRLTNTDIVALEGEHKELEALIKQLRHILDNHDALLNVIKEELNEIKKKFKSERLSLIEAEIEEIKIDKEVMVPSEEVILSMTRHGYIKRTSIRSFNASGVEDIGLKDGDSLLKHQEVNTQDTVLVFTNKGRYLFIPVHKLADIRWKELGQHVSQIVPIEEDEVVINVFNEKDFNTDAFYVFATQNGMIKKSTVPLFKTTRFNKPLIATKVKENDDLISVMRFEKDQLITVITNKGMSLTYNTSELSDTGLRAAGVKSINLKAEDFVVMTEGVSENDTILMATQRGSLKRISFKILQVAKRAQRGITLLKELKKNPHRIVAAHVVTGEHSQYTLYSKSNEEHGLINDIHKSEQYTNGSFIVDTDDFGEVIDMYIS
- measurement notes: S. aureus topoisomerase IV decatenation gel assay
- Format: biochemical
- Method: S. aureus and E. coli DNA gyrase supercoiling and topo IV decatenation assay kits, as well as human topoisomerase II decatenation assay kits, were provided by Inspiralis (Norwich, UK). […] DNA bands were visualized by ethidium bromide staining the gel for 10 minutes, which was then destained for 10 minutes in water and analysed using gel documentation equipment (Syngene, Cambridge, UK). The DNA in each band was quantitated using Syngene Gene Tools software. […]
The entries below are paired with their reported IC50.

Some compounds with known IC50 results, for comparison:
{"compound": "O=C1COc2ncc(F)cc2N1[C@H]1CC[C@H](NCc2cc3c(=O)oc4ccc(F)cc4c3[nH]2)CC1 [Compound 1]", "IC50": "2250 nM"}
{"compound": "Cl.O=c1oc2ccc(F)cc2c2[nH]c(CN[C@H]3CC[C@H](n4c(=O)ccc5ccc(F)cc54)CC3)cc12 [Compound 6]", "IC50": "290 nM"}

What does the data say about its IC50? Entry: O=c1oc2ccc(F)cc2c2[nH]c(CN[C@H]3CC[C@H](n4c(=O)cnc5ncc(F)cc54)CC3)cc12 [Compound 4]
220 nM

----------
- System: CYP1A, CYP2B6, CYP2C8, CYP2C9, CYP2D6 and CYP3A4
- measurement notes: Inhibition of P450 isoenzymes
- Assay type: in vitro ADME
- protocol conditions: human, read-out: % inhibition of CYP450 isoenzymes other than CYP2C19
endpoint name: inhibition at 10 µM

{"smiles repr": "O=C1COc2ncc(F)cc2N1[C@H]1CC[C@H](NCc2cc3c(=O)oc4ccc(F)cc4c3[nH]2)CC1", "inhibition at 10 µM": "≤ 35%"}

Now turn to the next compound.
Quick check: inhibition at 10 µM of `Cl.N#Cc1ccc2ccc(=O)n([C@H]3CC[C@H](NCc4cc5c(=O)oc6ccc(F)cc6c5[nH]4)CC3)c2c1` ?
≤ 35%

----------
- system: S. aureus Topoisomerase IV (Staphylococcus aureus)
- Construct: purchased Inspiralis (Norwich, UK)
- measurement notes: S. aureus topoisomerase IV decatenation gel assay
- Type: biochemical
- protocol conditions: replicate Assay 2; read-out: IC50 S. aureus Topoisomerase IV decatenation, Assay 2
A collection of compounds and their measured IC50
A number alone suffices; assume µM.

Sample answers from the record:
{"smiles repr": "Cl.O=c1oc2ccc(F)cc2c2[nH]c(CN[C@H]3CC[C@H](n4c(=O)ccc5ccc(F)cc54)CC3)cc12", "measurement unit": "µM", "IC50": 0.26}
{"smiles repr": "O=c1oc2ccc(F)cc2c2[nH]c(CN[C@H]3CC[C@H](n4c(=O)cnc5ncc(F)cc54)CC3)cc12", "measurement unit": "µM", "IC50": 0.17}

Given the entry `O=C1COc2ncc(F)cc2N1[C@H]1CC[C@H](NCc2cc3c(=O)oc4ccc(F)cc4c3[nH]2)CC1` , report its measured IC50.
2.3

And what about the compound `COc1cnc2ncc(=O)n([C@H]3CC[C@H](NCc4cc5c(=O)oc6ccc(F)cc6c5[nH]4)CC3)c2c1` ?
0.06
